Test system: Powassan virus (POWV)
SETUP_CONDITIONS: BHK-21 cells without virus; test compounds
OBSERVABLE: CC50

-- ask Give me measured CC50, please, for this compound: O=c1ccn([C@@H]2OC(CO)=C[C@H]2O)c(=O)[nH]1
-- reply > 2000 µM

###

Quick list: half-life per entry.
TEST_PROTOCOL: in vivo
SETUP_CONDITIONS: male, Sprague-Dawley, rat, iv, 10 mg/kg, t1/2
Answer in min, number only, no unit symbol.

CCCCCCCCCCCCCCCCOCCCOP(=O)(O)OCC1=C[C@H](O)[C@H](n2cnc3c(=O)[nH]c(N)nc32)O1	48

Field: next compound
-- ask Look up half-life of CCCCCCCCCCCCCCCCOCCCOP(=O)(O)CO[C@H](CO)Cn1ccc(N)nc1=O and report it.
-- reply 48

###

TEST_PROTOCOL: in vitro
SETUP_CONDITIONS: African green monkey
OBSERVABLE: CC50

-- ask Retrieve CC50 measured for Nc1nc2c(ncn2[C@@H]2OC(CO)=CC2O)c(=O)[nH]1 (stereo partly shown) and print it.
-- reply > 2000 µM

###

TEST_PROTOCOL: in vivo
SETUP_CONDITIONS: male, Sprague-Dawley, rat, po, 10 mg/kg
OBSERVABLE: bioavailability (%)
Numbers only; they are read as %.

CCCCCCCCCCCCCCCCOCCCOP(=O)(O)OCC1=C[C@H](O)[C@H](n2cnc3c(=O)[nH]c(N)nc32)O1	4

Attention now turns to another entry.
-- ask Report bioavailability for CCCCCCCCCCCCCCCCOCCCOP(=O)(O)CO[C@H](CO)Cn1ccc(N)nc1=O
-- reply 11

###

TEST_PROTOCOL: in vitro
SETUP_CONDITIONS: rat, s9, T1/2
OBSERVABLE: half-life at 1 μM (h)
Answer with a number only, understood to be in h.

CCCCCCCCCCCCCCCCOCCCOP(=O)(O)OCC1=C[C@H](O)[C@H](n2cnc3c(=O)[nH]c(N)nc32)O1	3.95

-- ask Supply recorded half-life at 1 μM for CCCCCCCCCCCCCCCCOCCCOP(=O)(O)CO[C@H](CO)Cn1ccc(N)nc1=O here.
-- reply 7.68

-- ask Report measured half-life at 1 μM; entry is CCCCCCCCCCCCCCCCOCCCOP(=O)(O)OCC1=CC(O)C(n2ccc(=O)[nH]c2=O)O1 (stereo not drawn)
-- reply 5.79

###

TEST_PROTOCOL: in vitro
SETUP_CONDITIONS: African green monkey
Entries annotated with measured CC50

Nc1ccn([C@@H]2OC(CO)=C[C@H]2O)c(=O)n1 [AB21650, 3′-deoxy-3′,4′-didehydro cytidine]	> 2000 µM

Next:
-- ask Return the recorded CC50 value; entry: Nc1nc2c(ncn2[C@@H]2OC(CO)=CC2O)c(=O)[nH]1 (some centres unmarked)
-- reply > 2000 µM

###

Test system: Tacaribe virus (TCRV, TRVL-11573)
OBSERVABLE: CC50 (µM)
Please reply with the bare figure in µM and do not write the unit itself.

Here is how some compounds turned out for CC50.
CC(C)(C)C(=O)SCCOP(=O)(OCCSC(=O)C(C)(C)C)OCC1=CC(O)C(n2cnc3c(=O)[nH]cnc32)O1 (stereo not drawn) [SATE-ddhI]	900
CC(C)(C)C(=O)SCCOP(=O)(OCCSC(=O)C(C)(C)C)OCC1=CC(O)C(n2cnc3c(=O)[nH]c(N)nc32)O1 (stereo not drawn) [SATE-ddhG]	610

-- ask Report CC50 from Tacaribe virus (TCRV, TRVL-11573) testing of CC(C)(C)C(=O)SCCOP(=O)(OCCSC(=O)C(C)(C)C)OCC1=CC(O)C(n2cnc3c(N)ncnc32)O1 (stereo not drawn) [SATE-ddhA]
-- reply 58

-- ask Jot down CC50 (Tacaribe virus (TCRV, TRVL-11573)) of CC(C)(C)C(=O)SCCOP(=O)(OCCSC(=O)C(C)(C)C)OCC1=CC(O)C(n2ccc(=O)[nH]c2=O)O1 (stereo not drawn) [SATE-ddhU] .
-- reply 170

-- ask Lab note: record CC50 of CC(C)(C)C(=O)SCCOP(=O)(OCCSC(=O)C(C)(C)C)OCC1=CC(O)C(n2ccc(N)nc2=O)O1 (stereo not drawn) [SATE-ddhC] tested on Tacaribe virus (TCRV, TRVL-11573).
-- reply 210

Ref: patent US12466849B2
